Target: mTOR (human recombinant aa mTOR 1360-2549) (Homo sapiens (Human))
Sequence (P42345 1360-2549): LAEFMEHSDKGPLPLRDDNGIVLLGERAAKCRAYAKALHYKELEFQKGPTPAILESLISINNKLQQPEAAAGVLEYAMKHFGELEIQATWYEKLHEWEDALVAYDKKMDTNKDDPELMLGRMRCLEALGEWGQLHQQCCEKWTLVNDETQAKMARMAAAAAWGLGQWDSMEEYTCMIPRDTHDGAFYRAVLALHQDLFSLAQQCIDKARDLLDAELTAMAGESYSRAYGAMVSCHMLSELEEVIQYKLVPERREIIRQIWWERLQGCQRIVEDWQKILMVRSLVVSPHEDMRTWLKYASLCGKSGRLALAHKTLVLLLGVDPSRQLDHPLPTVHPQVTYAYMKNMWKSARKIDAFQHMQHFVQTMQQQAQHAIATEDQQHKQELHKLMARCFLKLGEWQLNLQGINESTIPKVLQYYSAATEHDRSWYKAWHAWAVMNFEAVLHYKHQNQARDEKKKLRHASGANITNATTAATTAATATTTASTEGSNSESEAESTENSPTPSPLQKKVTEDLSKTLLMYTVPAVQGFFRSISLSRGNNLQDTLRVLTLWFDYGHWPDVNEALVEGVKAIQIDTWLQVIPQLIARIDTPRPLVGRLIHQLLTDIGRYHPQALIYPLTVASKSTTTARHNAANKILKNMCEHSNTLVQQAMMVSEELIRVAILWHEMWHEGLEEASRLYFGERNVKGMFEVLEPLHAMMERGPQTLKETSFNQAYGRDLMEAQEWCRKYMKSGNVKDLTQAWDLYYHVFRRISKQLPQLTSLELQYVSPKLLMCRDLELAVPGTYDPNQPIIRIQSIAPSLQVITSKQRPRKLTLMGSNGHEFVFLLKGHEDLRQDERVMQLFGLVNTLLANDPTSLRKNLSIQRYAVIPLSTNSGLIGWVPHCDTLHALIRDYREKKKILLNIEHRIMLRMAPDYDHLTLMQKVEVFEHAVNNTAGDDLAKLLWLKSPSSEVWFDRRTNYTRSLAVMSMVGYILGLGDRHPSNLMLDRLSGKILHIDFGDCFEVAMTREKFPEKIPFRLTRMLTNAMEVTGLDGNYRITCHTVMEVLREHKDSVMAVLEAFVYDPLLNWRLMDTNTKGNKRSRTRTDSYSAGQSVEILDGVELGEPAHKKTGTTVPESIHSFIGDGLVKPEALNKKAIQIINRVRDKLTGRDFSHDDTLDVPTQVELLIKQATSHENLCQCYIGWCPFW
Experiment: mTOR enzymatic test by TR-FRET (phosphorylation of GFP-4EBP1)
pIC50: −log10 of the molar value.
property-measured: pIC50

[[record]]
smiles_input = "CCN1CC(C)(C)Oc2nc(N3CC4CCC(C3)O4)nc(-c3ccc(NC(=O)Nc4ccc(C#N)nc4)c(F)c3)c2C1=O"
assayed_target = "mTOR (human recombinant aa mTOR 1360-2549) (Homo sapiens (Human))"
data_value = 7.59

[[record]]
smiles_input = "CCN1CC(C)(C)Oc2nc(N3CCOC[C@@H]3C)nc(-c3ccc(NC(=O)Nc4ccc(N5CCN(C)CC5)nc4)c(F)c3)c2C1=O"
assayed_target = "mTOR (human recombinant aa mTOR 1360-2549) (Homo sapiens (Human))"
data_value = 7.43

[[record]]
smiles_input = "CCN1CC(C)(C)Oc2nc(N3CC4CCC(C3)O4)nc(-c3ccc(NC(=O)Nc4ccc(N5CCN(S(C)(=O)=O)CC5)cc4)c(F)c3)c2C1=O"
assayed_target = "mTOR (human recombinant aa mTOR 1360-2549) (Homo sapiens (Human))"
data_value = 7.05

[[record]]
smiles_input = "CCN1CC(C)(C)Oc2nc(N3CCOC[C@@H]3C)nc(-c3ccc(NC(=O)Nc4ccc(OC)cn4)c(F)c3)c2C1=O"
assayed_target = "mTOR (human recombinant aa mTOR 1360-2549) (Homo sapiens (Human))"
data_value = 7.26

[[record]]
smiles_input = "CCN1CC(C)(C)Oc2nc(N3C4CCC3COC4)nc(-c3ccc(NC(=O)Nc4ccc(C)nc4)c(F)c3)c2C1=O"
assayed_target = "mTOR (human recombinant aa mTOR 1360-2549) (Homo sapiens (Human))"
data_value = 7.37

[[record]]
smiles_input = "CCN1CC(C)(C)Oc2nc(N3CC4CCC(C3)O4)nc(-c3ccc(NC(=O)NC)c(F)c3)c2C1=O"
assayed_target = "mTOR (human recombinant aa mTOR 1360-2549) (Homo sapiens (Human))"
data_value = 7.64

[[record]]
smiles_input = "CN1CC(C)(C)Oc2nc(N3CC4CCC(C3)O4)nc(-c3ccc(NC(=O)Nc4ccncc4F)cc3)c2C1=O"
assayed_target = "mTOR (human recombinant aa mTOR 1360-2549) (Homo sapiens (Human))"
data_value = 7.62

[[record]]
smiles_input = "CCN1CC(C)(C)Oc2nc(N3CC4CCC(C3)O4)nc(-c3ccc(NC(=O)Nc4ccc(OC)nc4)c(C)c3)c2C1=O"
assayed_target = "mTOR (human recombinant aa mTOR 1360-2549) (Homo sapiens (Human))"
data_value = 6.23

[[record]]
smiles_input = "CCN1CC(C)(C)Oc2nc(N3CCOC[C@@H]3C)nc(-c3ccc(NC(=O)Nc4cc(OC)ccn4)cc3)c2C1=O"
assayed_target = "mTOR (human recombinant aa mTOR 1360-2549) (Homo sapiens (Human))"
data_value = 7.92


----------
Molecular target: PI3Kα (p110α/p85α) (Homo sapiens (Human))
Experiment: PI3Kα enzymatic test by measuring the consumption of ATP
Format: biochemical
Protocol: Model 2: PI3Kα Enzymatic Test by Measuring the Consumption of ATP. The test uses a lucifeurerin/luciferase system to measure the concentration of ATP and its consumption during the enzymatic reaction. The test is performed in 96-well format (Corning/Costar 96 black flat-bottomed half-wells plate, ref. 3694) in a total volume of 30 μl. […] The IC50 values are determined by the preparation of successive threefold dilutions on at least a scale of 10 000.
property-measured: PI3Ka IC50

[[record]]
compound = "CCNC(=O)Nc1ccc(-c2nc(N3C[C@@H](C)O[C@@H](C)C3)nc3c2C(=O)N(CC)CC(C)(C)O3)cc1"
assayed_target = "PI3Kα (p110α/p85α) (Homo sapiens (Human))"
data_value = ">10 µM"

[[record]]
compound = "CCN1CC(C)(C)Oc2nc(N3CC4CCC(C3)O4)nc(-c3ccc(NC(=O)Nc4cnc(N(C)C)cn4)c(F)c3)c2C1=O"
assayed_target = "PI3Kα (p110α/p85α) (Homo sapiens (Human))"
data_value = ">10 µM"

[[record]]
compound = "CCN1CC(C)(C)Oc2nc(N3C4CCC3COC4)nc(-c3ccc(NC(=O)Nc4cc(OC)ccn4)cc3)c2C1=O"
assayed_target = "PI3Kα (p110α/p85α) (Homo sapiens (Human))"
data_value = ">10 µM"

[[record]]
compound = "CCN1CC(C)(C)Oc2nc(N3CC4CCC(C3)O4)nc(-c3ccc(NC(=O)Nc4ccc(N5CCC(O)C5)cn4)cc3)c2C1=O (stereo not shown)"
assayed_target = "PI3Kα (p110α/p85α) (Homo sapiens (Human))"
data_value = ">10 µM"


----------
Collected PI3Ka IC50 values appear next to each entry.
Target: PI3Kα (p110α/p85α) (Homo sapiens (Human))
Experiment: PI3Kα enzymatic test by measuring the consumption of ATP
Format: biochemical
property-measured: PI3Ka IC50

[[record]]
molecule = "CCN1CC(C)(C)Oc2nc(N3CC4CCC(C3)O4)nc(-c3ccc(NC(=O)Nc4cc(OC)c(F)cc4F)cc3)c2C1=O [Example 155]"
data_value = ">10 µM"

[[record]]
molecule = "CCN1CC(C)(C)Oc2nc(N3CC4CCC(C3)O4)nc(-c3ccc(NC(=O)Nc4cnc(OC)nc4)c(F)c3)c2C1=O [Example 136]"
data_value = ">10 µM"

[[record]]
molecule = "CCNC(=O)Nc1ccc(-c2nc(N3CC4CCC(C3)O4)nc3c2C(=O)N(C[C@@H]2CCCN2)CC(C)(C)O3)cc1F [Example 4]"
data_value = ">10 µM"


----------
Molecular target: PI3Kα (p110α/p85α) (Homo sapiens (Human))
Experiment: PI3Kα enzymatic test by measuring the consumption of ATP
Type: biochemical
Collected PI3Ka IC50 values appear next to each entry.
property-measured: PI3Ka IC50

[[record]]
compound = "CCNC(=O)Nc1ccc(-c2nc(N3CC4CCC(C3)O4)nc3c2C(=O)N(C[C@@H]2CCCN2C(=O)OCC)CC(C)(C)O3)cc1F [Example 5]"
data_value = ">10 µM"

[[record]]
compound = "COCCN1CC(C)(C)Oc2nc(N3CCOC[C@@H]3C)nc(-c3ccc(NC(=O)Nc4cccc(OC(F)F)c4)cc3)c2C1=O [Example 216]"
data_value = "1.83 µM"

[[record]]
compound = "CCNC(=O)Nc1ccc(-c2nc(N3CCOCC3)nc3c2C(=O)NCC(C)(C)O3)cc1 [Example 94]"
data_value = "7.32 µM"


----------
Target: PI3Kα (p110α/p85α) (Homo sapiens (Human), UniProt P42336)
Sequence (P42336 whole entry): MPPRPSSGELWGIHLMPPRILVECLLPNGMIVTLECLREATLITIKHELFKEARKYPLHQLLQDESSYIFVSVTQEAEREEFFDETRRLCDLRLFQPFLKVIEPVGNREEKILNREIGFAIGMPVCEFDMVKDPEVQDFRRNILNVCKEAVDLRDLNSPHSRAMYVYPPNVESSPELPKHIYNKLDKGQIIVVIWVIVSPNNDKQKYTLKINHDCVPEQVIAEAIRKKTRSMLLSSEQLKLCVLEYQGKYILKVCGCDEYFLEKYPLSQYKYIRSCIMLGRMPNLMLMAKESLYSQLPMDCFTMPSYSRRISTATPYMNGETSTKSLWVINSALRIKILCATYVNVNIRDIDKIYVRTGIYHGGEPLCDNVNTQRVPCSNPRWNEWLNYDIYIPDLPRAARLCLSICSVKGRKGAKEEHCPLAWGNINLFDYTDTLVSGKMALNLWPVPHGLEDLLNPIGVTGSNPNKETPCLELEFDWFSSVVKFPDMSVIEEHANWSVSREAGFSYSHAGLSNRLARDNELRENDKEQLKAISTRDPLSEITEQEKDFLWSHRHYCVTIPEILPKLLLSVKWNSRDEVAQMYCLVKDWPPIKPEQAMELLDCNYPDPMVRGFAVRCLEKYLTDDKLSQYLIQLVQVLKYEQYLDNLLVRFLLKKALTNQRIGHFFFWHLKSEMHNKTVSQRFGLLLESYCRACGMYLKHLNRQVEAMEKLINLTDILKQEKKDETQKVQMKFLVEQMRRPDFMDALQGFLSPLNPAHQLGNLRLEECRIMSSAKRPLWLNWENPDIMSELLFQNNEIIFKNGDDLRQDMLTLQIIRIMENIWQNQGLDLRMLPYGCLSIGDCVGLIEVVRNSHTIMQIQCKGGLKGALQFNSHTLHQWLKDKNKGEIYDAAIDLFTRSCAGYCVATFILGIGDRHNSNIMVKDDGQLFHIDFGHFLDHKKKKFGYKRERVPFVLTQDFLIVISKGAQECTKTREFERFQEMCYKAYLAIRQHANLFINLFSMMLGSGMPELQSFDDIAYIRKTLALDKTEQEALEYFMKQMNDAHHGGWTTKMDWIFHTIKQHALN
Sequence (P27986 whole entry partner): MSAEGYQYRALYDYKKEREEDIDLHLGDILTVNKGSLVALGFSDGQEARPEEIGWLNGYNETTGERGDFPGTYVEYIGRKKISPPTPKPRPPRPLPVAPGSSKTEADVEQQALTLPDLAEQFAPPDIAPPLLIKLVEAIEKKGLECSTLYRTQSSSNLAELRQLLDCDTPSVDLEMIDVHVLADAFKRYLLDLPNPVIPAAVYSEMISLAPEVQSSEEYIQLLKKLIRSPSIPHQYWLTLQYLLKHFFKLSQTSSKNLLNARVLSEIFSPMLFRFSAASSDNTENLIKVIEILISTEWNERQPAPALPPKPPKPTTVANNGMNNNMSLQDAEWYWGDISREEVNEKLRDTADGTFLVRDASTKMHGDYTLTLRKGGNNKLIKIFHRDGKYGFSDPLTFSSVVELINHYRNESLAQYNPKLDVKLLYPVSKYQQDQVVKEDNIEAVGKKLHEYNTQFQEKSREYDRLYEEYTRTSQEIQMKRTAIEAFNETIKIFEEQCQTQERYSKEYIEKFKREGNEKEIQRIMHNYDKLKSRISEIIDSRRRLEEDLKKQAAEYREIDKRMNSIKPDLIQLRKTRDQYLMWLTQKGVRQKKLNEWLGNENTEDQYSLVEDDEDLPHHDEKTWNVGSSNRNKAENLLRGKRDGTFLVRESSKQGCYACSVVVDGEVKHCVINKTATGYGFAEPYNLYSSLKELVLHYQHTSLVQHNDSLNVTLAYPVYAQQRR
Assay: PI3Kα enzymatic test by measuring the consumption of ATP
Assay type: biochemical
Collected PI3Ka IC50 values appear next to each entry.
property-measured: PI3Ka IC50

[[record]]
compound = "CCN1CC(C)(C)Oc2nc(N3CC4CCC(C3)O4)nc(-c3ccc(NC(=O)OCCO)c(F)c3)c2C1=O"
data_value = ">10 µM"

[[record]]
compound = "CCN1CC(C)(C)Oc2nc(N3CCOC[C@@H]3C)nc(-c3ccc(NC(=O)NCC(F)(F)F)c(F)c3)c2C1=O"
data_value = ">10 µM"

[[record]]
compound = "CCN1CC(C)(C)Oc2nc(N3C4CCC3COC4)nc(-c3ccc(NC(=O)OCCO)cc3F)c2C1=O"
data_value = "3.87 µM"

[[record]]
compound = "CCN1CC(C)(C)Oc2nc(N3CC4CCC(C3)O4)nc(-c3ccc(NC(=O)NCCOC)c(F)c3)c2C1=O"
data_value = ">10 µM"

[[record]]
compound = "CCN1CC(C)(C)Oc2nc(N3CC4CCC(C3)O4)nc(-c3ccc(NC(=O)Nc4ccc(F)c(OC)c4)c(F)c3)c2C1=O"
data_value = ">10 µM"

[[record]]
compound = "CCN1CC(C)(C)Oc2nc(N3CC4CCC(C3)O4)nc(-c3ccc(NC(=O)Nc4ccc(OC)nc4)c(F)c3)c2C1=O [Example 240]"
data_value = ">10 µM"


----------
Collected PI3Ka IC50 values appear next to each entry.
Target: PI3Kα (p110α/p85α) (Homo sapiens (Human))
Experiment: PI3Kα enzymatic test by measuring the consumption of ATP
Type: biochemical
property-measured: PI3Ka IC50

[[record]]
smiles_input = "CCN1CC(C)(C)Oc2nc(N3CC4CCC(C3)O4)nc(-c3ccc(NC(=O)Nc4ccc(OC)nc4)c(C)c3)c2C1=O"
property_measured = "PI3Ka IC50"
data_value = ">10 µM"

[[record]]
smiles_input = "CCNC(=O)Nc1ccc(-c2nc(N3CC4CCC(C3)O4)nc3c2C(=O)N(CC)CC(C)(C)O3)cc1"
property_measured = "PI3Ka IC50"
data_value = ">10 µM"

[[record]]
smiles_input = "CCN1CC(C)(C)Oc2nc(N3C4CCC3COC4)nc(-c3ccc(NC(=O)Nc4ccncn4)cc3)c2C1=O"
property_measured = "PI3Ka IC50"
data_value = ">10 µM"

